Target: T1, His6-Glis3(ZFD) (mouse, UniProt Q6XP49 345-496)
T1 sequence: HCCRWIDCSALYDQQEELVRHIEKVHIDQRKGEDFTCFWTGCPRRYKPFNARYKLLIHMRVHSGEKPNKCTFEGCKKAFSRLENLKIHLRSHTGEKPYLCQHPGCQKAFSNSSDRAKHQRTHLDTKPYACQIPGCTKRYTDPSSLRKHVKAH
Assay: EMSA
measurement_kind: Kd (nM)

binder: Glis-BS consensus (dsDNA) DNA 1: CGTGGGGGGTC DNA 2: GACCCCCCACG
measurement_kind: Kd
test_value: 3.69
